Test system: Echinochloa oryzoides (Ard.) Fritsch.
procedure text: Preemergence weed control under flooded paddy conditions, ECHORC (Watergrass (Calif.)); also: meaning of each grade not given here
Type: in vivo
conditions: 0.0625 kg/ha; preemergence, flooded paddy; rated three to four weeks after treatment
Assignment: determine reported herbicidal effect rating, ECHORC for the given molecules.
Quick one: just the number, no unit, thanks!

Value of measured herbicidal effect rating, ECHORC for the entry Cc1ccc(OC(C)C)c(-c2nsc3ccc(-n4c(=O)cc(C(F)(F)F)n(C)c4=O)cc23)c1 [Example 59] : 9.0

Value of measured herbicidal effect rating, ECHORC for the entry COC(=O)COc1ccc(C)cc1-c1nsc2ccc(-n3c(=O)cc(C(F)(F)F)n(C)c3=O)cc12 [Example 2] : 9.0

Value of measured herbicidal effect rating, ECHORC for the entry Cc1cc(O)c(-c2nsc3ccc(-n4c(=O)cc(C(F)(F)F)n(C)c4=O)cc23)cc1C [Example 11] : 7.0

Value of measured herbicidal effect rating, ECHORC for the entry CCc1ccc(-c2nsc3ccc(-n4c(=O)cc(C(F)(F)F)n(C)c4=O)cc23)cc1 [Example 5] : 9.0
